The reported numbers originate from patent US12522594B2.

system name: AHR (Homo sapiens, UniProt P35869)
Sequence (P35869 11-848): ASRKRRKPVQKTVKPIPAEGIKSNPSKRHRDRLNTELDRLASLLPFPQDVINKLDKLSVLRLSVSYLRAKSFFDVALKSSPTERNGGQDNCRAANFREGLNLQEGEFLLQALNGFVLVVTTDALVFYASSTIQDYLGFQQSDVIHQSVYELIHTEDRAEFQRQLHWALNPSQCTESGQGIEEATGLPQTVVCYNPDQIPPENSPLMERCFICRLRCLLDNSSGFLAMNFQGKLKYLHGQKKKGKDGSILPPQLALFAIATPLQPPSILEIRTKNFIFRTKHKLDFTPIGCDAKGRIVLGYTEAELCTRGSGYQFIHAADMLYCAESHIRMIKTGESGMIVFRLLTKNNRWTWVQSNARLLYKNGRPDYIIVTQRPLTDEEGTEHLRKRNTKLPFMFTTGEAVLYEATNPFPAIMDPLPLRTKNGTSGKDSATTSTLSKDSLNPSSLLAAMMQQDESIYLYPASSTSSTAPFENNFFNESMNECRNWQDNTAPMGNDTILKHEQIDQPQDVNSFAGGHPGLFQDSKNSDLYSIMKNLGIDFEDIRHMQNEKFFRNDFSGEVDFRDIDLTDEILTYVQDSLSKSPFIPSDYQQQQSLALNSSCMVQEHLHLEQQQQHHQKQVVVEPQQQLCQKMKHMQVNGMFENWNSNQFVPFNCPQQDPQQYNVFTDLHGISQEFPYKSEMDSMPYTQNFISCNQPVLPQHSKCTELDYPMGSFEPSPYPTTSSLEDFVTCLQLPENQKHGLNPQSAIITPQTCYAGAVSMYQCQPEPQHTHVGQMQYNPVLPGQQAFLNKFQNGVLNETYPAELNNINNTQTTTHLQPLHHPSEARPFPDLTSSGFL
assay comment: In vitro assay 3: AHR-regulated CYP1A1 expression in human cell line (U937, qPCR, KA stimulation)
Format: cell-based
assay conditions: U937 cells, 200 uM KA, 6 hours, CYP1A1 expression by qPCR; read-out: Assay 3: Hum CYP1A1 Antagonism IC50
pIC50: −log10 of the molar value.
parameter: pIC50

Cn1cc(-n2nc(-c3ccc(OC(F)(F)F)cc3)cc(C(=O)N[C@H]3CCCC[C@H]3O)c2=O)cn1 [Example 46] : 8.87
COCC(O)CNC(=O)c1cc(-c2ccc(Cl)cc2)nn(-c2cnn(C)c2)c1=O (single isomer, unassigned; (-)) [Example 25] : 7.04

(P) Cc1ccc(-c2cc(C(=O)N[C@@H](C)CO)c(=O)n(-c3cccnc3)n2)cc1 [Example 152]
(Q) CCC(CO)NC(=O)c1cc(-c2ccc(C)cc2)nn(-c2cnn(C)c2)c1=O (single isomer, unassigned) [Example 5]
INPUT: Pick the one with the larger pIC50: P vs Q Please reply using the label of the selected record.
OUTPUT: Q

(A) C[C@@H](CO)NC(=O)c1cc(-c2ccc(Cl)cc2)nn(-c2cccnc2)c1=O [Example 68]
(B) Cn1cc(-n2nc(-c3ccc(Cl)cc3)cc(C(=O)NCC(O)C(F)(F)F)c2=O)cn1 (centres unmarked) [Example 18]
(C) O=C(N[C@H]1CCCC[C@H]1O)c1cc(-c2ccc(Cl)cc2)nn(-c2cccnc2)c1=O [Example 125]
(D) O=C(N[C@@H]1CC[C@@H]1O)c1cc(-c2ccc(C(F)(F)F)cc2)nn(-c2cccnc2)c1=O (single isomer, unassigned) [Example 217]
INPUT: With regard to pIC50, arrange the entries in ascending order, please. Hello, could you send the labels back in the order asked? Thank you.
OUTPUT: A, B, D, C

(P) O=C(N[C@@H]1CCC[C@H]1O)c1cc(-c2ccc(C(F)(F)F)cc2)nn(-c2cccnc2)c1=O [Example 104]
(Q) O=C(N[C@H]1CCCC[C@H]1O)c1cc(-c2ccc(OC(F)(F)F)cc2)nn(-c2cccnc2)c1=O [Example 126]
INPUT: Input pair: P , Q . Output: entry with lower pIC50. Could you answer with the label of the item you picked?
OUTPUT: P

(1) C[C@@H](CO)NC(=O)c1cc(-c2ccc(OC(F)(F)F)cc2)nn(-c2cnn(C)c2)c1=O [Example 53]
(2) O=C(N[C@H]1COC[C@@H]1O)c1cc(-c2ccc(Cl)cc2)nn(-c2cccnc2)c1=O (single isomer, unassigned; enantiomer 2) [Example 170]
INPUT: Which of the two gives a bigger number for pIC50: 1 or 2 ? Let me know the label of the one you choose.
OUTPUT: 1

(I) Cc1ccc(-c2cc(C(=O)NCC(O)C(F)F)c(=O)n(-c3cnn(C)c3)n2)cc1 (centres unmarked) [Example 13]
(II) Cn1cc(-n2nc(-c3ccc(C(F)(F)F)cc3)cc(C(=O)N[C@@H]3CCC[C@H]3O)c2=O)cn1 [Example 248]
INPUT: Task for the reader: decide whether I or II has the larger pIC50. // caller expects the label of the chosen entry
OUTPUT: I
(I: 7.70, II: 7.50)
